Reference for the values: the supplement of paper PMC10126150

Tested on: ATP;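 also: ATP exposure 15 min at 22 °C before imaging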
TEST: switch fluorescence ratio, 500 uM ATP over buffer (Cy3 cluster intensity, sum of 5 cycles each) (fold (ratio)); higher = stronger signal-on switching upon ATP binding; sequences stand for … in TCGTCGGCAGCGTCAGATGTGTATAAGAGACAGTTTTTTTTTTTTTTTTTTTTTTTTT…TC
EXPERIMENTAL SETUP: aptamer strand: ATP DNA aptamer (quencher-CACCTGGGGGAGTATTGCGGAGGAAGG + anchor), 100 nM annealed; ATP concentration: 500 uM
OBSERVABLE: switch fluorescence ratio
Field format: numeric only.

>>> number("ATATGGGTAC")
1.03
>>> number("ATATATGTGG")
0.981
>>> number("TGGCGGCATG")
1.01
>>> number("ACTGTTTTGA")
0.962
>>> number("AAGTTATAAC")
0.956
>>> number("TGTTTGTTAC")
1.01

# switch fluorescence ratio of TTTTGTTCCC = 1

# switch fluorescence ratio of GCGGGTTAAG = 0.983

# switch fluorescence ratio of TTTTAACTCG = 1.01

# switch fluorescence ratio of TGGTTTATGG = 1.01

# switch fluorescence ratio of AAACGCTGCG = 1.02

# switch fluorescence ratio of GGCCTTTTGA = 0.997

# switch fluorescence ratio of GACTCAATGG = 1.14
